Source of measurements: ChEMBL document CHEMBL1156829

experiment: NOVARTIS: Cytotoxicity against human hepatocellular carcinoma cell line (Huh7); format: toxicity, cell-based, Huh-7; settings: Huh7 cells (hepatocellular carcinoma cell line)
We begin with a simple list: items and their reported CC50.
readout-type: CC50

>>> value_observed("CCCC(C(=O)NCCC(C)C)N(C(=O)c1snc(C(N)=O)c1N)c1ccc(C(C)C)cc1 (stereo unspecified)")
"> 100 µM"
>>> value_observed("COc1ccc(OC)c(C2CC(=O)C3=C(C2)NC(=O)CC3c2ccc(OC)c(OC)c2)c1 (stereo unspecified)")
"> 100 µM"
>>> value_observed("COc1cc(NC(C)CCCN(Cc2ccc(OC)c(OC)c2)C(=O)NC2CCCCC2)c2ncccc2c1 (stereo unspecified)")
"1.3 µM"
>>> value_observed("Nc1nc(N)nc(C(c2ccccc2)c2ccccc2)n1")
"> 13.2 µM"
>>> value_observed("CCCCNC(=S)N(Cc1cccs1)Cc1cc2cc(C)ccc2[nH]c1=O")
"> 10 µM"
>>> value_observed("c1ccc([B-](c2ccccc2)(c2ccccc2)c2ccccc2)cc1")
"> 100 µM"
>>> value_observed("Cn1c(SCc2cccc([N+](=O)[O-])c2)nc2c(c1=O)SCC2")
"> 100 µM"
>>> value_observed("COc1ccc(-c2cc(C(F)(F)F)n3ncc(C(=O)Nc4cc(C)ccc4O)c3n2)cc1OC")
"> 100 µM"
>>> value_observed("CN(C)c1cc[n+](CC(=O)c2ccc(Cl)cc2)cc1")
"> 100 µM"
>>> value_observed("COc1ccc(C(=O)Nc2nonc2-c2ccc(OC)c(OC)c2)cc1Cl")
"> 100 µM"
>>> value_observed("COc1ccc(CCN(Cc2ccc(Cl)cc2)S(=O)(=O)c2ccc(S(N)(=O)=O)cc2)cc1OC")
"67.3 µM"
